target: SARS-CoV2 NSP14/NSP10 exonuclease (Severe acute respiratory syndrome coronavirus 2 (2019-nCoV) (SARS-CoV-2), UniProt P0DTD1); assay: biochemical; conditions: Oligo D; linear reaction range, less than 60% of total substrate consumed at readout; read-out: half maximal inhibitory concentration (IC50)
compounds and their reported IC50
Expressed in µM, but write only the number.

mol: CC(C)=CCOc1ccc(/C=C/C(=O)c2ccc(OCC=C(C)C)cc2OCC(=O)O)cc1
propertyLabel: IC50
endpointResult: 28.8
--
mol: CC(C)=CCc1c2c(c3occ(-c4ccc(O)c(O)c4)c(=O)c3c1O)C=CC(C)(C)O2
propertyLabel: IC50
endpointResult: 5.9

Now for another entry.
Request the reported IC50 associated with CC(C)=CCc1c(O)ccc(C(=O)/C=C/c2ccc(O)cc2)c1O 16.6

---

test system: A549 cells; experiment: AlamarBlue viability assay; details: A549 human lung cells, 48 hours
propertyLabel: Toxicity at IC50

compound: CC(C)=CCc1c(O)cc(O)c(C(=O)/C=C/c2ccc(O)cc2)c1O
testSystem: A549 cells
Toxicity at IC50: Yes
--
compound: O=C(/C=C/c1ccc(O)cc1)c1c(O)cc(O)cc1O
testSystem: A549 cells
Toxicity at IC50: Yes
--
compound: O=C(NCc1ncc[nH]1)c1c(O)cnc2ccccc12
testSystem: A549 cells
Toxicity at IC50: No
--
compound: O=C1Cc2ccccc2C(=O)N1O [Compound 13, 2-Hydroxyisoquinoline-1,3(2H,4H)-dione]
testSystem: A549 cells
Toxicity at IC50: Yes

Now for another entry.
Request the reported Toxicity at IC50 associated with CC(C)=CCc1c(O)ccc(C(=O)/C=C/c2ccc(O)cc2O)c1O Yes

---

biological target: SARS-CoV2 NSP14/NSP10 exonuclease (Severe acute respiratory syndrome coronavirus 2 (2019-nCoV) (SARS-CoV-2), UniProt P0DTD1); test: biochemical; conditions: Table 2; read-out: SARS-CoV2 IC50
propertyLabel: pIC50
Scale: negative log10 of molar concentration, which is what pIC50 denotes.

Request the reported pIC50 associated with O=c1c2[nH]c3ccccc3c2ncn1CCc1ccc(F)cc1 3.66

---

system: A549 cells; assay: AlamarBlue viability assay; conditions: A549 human lung cells, 48 hours
propertyLabel: Toxicity at IC50

Below, each entry is followed by its recorded Toxicity at IC50 result.
molecule: CC(C)=CCc1c(O)ccc(C(=O)/C=C/c2ccc(O)cc2)c1O [Compound 77, Isobavachalcone]
testSystem: A549 cells
propertyLabel: Toxicity at IC50
endpointResult: some
--
molecule: O=P(O)(O)c1ccc2ccc(CCc3ccc(O)c(O)c3)nc2c1O [Compound 100]
testSystem: A549 cells
propertyLabel: Toxicity at IC50
endpointResult: No
--
molecule: O=C(O)c1cc(/C=C/c2ccc3ccc(C(=O)O)c(O)c3n2)ccc1O [Compound 90]
testSystem: A549 cells
propertyLabel: Toxicity at IC50
endpointResult: No
--
molecule: O=C(O)c1cc2cc(-c3ccccc3)ccc2[nH]c1=O [Compound 53]
testSystem: A549 cells
propertyLabel: Toxicity at IC50
endpointResult: no
--
molecule: CC(C)c1cc(Cc2cc(C(C)C)cc(C(=O)O)c2O)c(O)c(C(=O)O)c1 [Compound 65]
testSystem: A549 cells
propertyLabel: Toxicity at IC50
endpointResult: no
--
molecule: Oc1ccc(/C=C/c2ccc3cccc(O)c3n2)cc1O [Compound 92]
testSystem: A549 cells
propertyLabel: Toxicity at IC50
endpointResult: Yes
--
molecule: CC(C)=CCc1cc(C(=O)/C=C/c2ccc(O)cc2)c(O)cc1O [Compound 57, Bavachalcone]
testSystem: A549 cells
propertyLabel: Toxicity at IC50
endpointResult: yes
--
molecule: O=c1cc(-c2ccc(O)cc2)oc2cc(O)c(O)c(O)c12 [Compound 62, Scutellarein]
testSystem: A549 cells
propertyLabel: Toxicity at IC50
endpointResult: no
--
molecule: O=C(O)c1ccc2ccc(/C=C/c3ccc(F)c(F)c3)nc2c1O [Compound 89]
testSystem: A549 cells
propertyLabel: Toxicity at IC50
endpointResult: Yes
--
molecule: O=C(O)c1ccc2ccc(/C=C/c3ccc(O)c(O)c3)nc2c1O [Compound 79]
testSystem: A549 cells
propertyLabel: Toxicity at IC50
endpointResult: No

Request the reported Toxicity at IC50 associated with O=C(O)c1ccc2nc(/C=C/c3ccc(O)c(O)c3)ccc2c1O [Compound 99] Yes

Request the reported Toxicity at IC50 associated with Oc1ccc(CC2NCCc3cc(O)c(O)cc32)cc1O (stereo not drawn) [Compound 54, Tetrahydropapaveroline] no

Request the reported Toxicity at IC50 associated with O=C(/C=C/c1ccc(O)c(O)c1)c1ccc(O)c(O)c1O [Compound 76, Okanin] Yes

Request the reported Toxicity at IC50 associated with Cc1ccc2ccc(C(=O)O)c(O)c2n1 [Compound 78] No

Request the reported Toxicity at IC50 associated with O=C(O)c1ccc2ccc(/C=C/c3cc(Br)c(O)c(Br)c3)nc2c1O [Compound 88] No

Request the reported Toxicity at IC50 associated with O=C(c1ccc(F)c(F)c1)c1ccc2ccc(/C=C/c3ccc(O)c(O)c3)nc2c1O [Compound 93] Yes

Request the reported Toxicity at IC50 associated with COc1cc(O)c(CC=C(C)C)c(O)c1C(=O)/C=C/c1ccc(O)cc1 [Compound 58, Xanthohumol] yes

Request the reported Toxicity at IC50 associated with O=C(O)c1c(O)c(Cc2ccc(Cl)cc2)nc2c3c(ccc12)CCCC3 [Compound 59] yes
